Can you tell me pIC50 for the items I'm about to list?
target: PSMA (Homo sapiens, UniProt Q04609); test: Determination of IC50: competitive binding against ([125I]I-BA)KuE on cells; conditions: natLu complexes; displacement of ([125I]I-BA)KuE, 60 min on ice, HBSS (1% BSA)
Sequence (Q04609 whole entry): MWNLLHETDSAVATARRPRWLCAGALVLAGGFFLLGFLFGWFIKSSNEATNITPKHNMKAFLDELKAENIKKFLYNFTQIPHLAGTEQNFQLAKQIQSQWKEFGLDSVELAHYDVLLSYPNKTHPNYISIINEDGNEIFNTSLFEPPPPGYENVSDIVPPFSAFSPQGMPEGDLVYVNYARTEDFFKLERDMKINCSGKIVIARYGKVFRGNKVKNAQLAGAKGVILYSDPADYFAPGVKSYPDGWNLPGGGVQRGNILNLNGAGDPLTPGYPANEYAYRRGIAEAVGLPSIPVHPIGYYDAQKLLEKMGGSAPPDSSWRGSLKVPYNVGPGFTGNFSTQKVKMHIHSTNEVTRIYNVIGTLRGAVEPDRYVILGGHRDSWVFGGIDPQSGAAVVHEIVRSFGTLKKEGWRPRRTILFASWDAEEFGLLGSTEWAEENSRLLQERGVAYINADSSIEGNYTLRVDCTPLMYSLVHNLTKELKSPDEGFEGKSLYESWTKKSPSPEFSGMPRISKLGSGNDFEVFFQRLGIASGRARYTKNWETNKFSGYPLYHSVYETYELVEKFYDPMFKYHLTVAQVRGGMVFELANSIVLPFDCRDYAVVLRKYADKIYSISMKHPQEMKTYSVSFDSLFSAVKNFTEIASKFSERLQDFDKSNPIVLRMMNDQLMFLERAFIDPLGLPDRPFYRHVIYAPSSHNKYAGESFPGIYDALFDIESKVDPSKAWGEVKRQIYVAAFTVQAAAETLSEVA
Numbered stars: 1 amine (or outer) side, 2 acyl side, 3 side chain; on linkers, the order of the positions; unused ones are H or OH. Square brackets hold non-standard residues; d marks the D form. Side chains are listed from the residue outwards. Peptide text beside a SMILES is read from it. * marks the point of attachment. X2 = O=C(O)CC[C@H](NC(=O)N[C@@H](CCC(=O)N[C@H](CCCN*)C(=O)O)C(=O)O)C(=O)O; X1 = O=C(O)CC[C@H](NC(=O)N[C@@H](CCCCNC(=O)CCCCCCC(=O)*)C(=O)O)C(=O)O; DOTAGA = O=C(O)CN1CCN(CC(=O)O)CCN(C(CCC(=O)*)C(=O)O)CCN(CC(=O)O)CC1; dPhe(4-NH2) = Nc1ccc(C[C@@H](N)C(=O)O)cc1; dTyr(3-I) = N[C@H](Cc1ccc(O)c(I)c1)C(=O)O; Phe(4-NH2) = Nc1ccc(C[C@H](N)C(=O)O)cc1; d2Nal = N[C@H](Cc1ccc2ccccc2c1)C(=O)O; Suc = O=C(CCC(=O)[*:2])[*:1]
On this scale, pIC50 is minus log10 of a concentration expressed in M (mol/L).

Query :: What does the record list as pIC50 for Nc1ccc(C[C@H](NC(=O)CCC(C(=O)O)N2CCN(CC(=O)O)CCN(CC(=O)O)CCN(CC(=O)O)CC2)C(=O)N[C@H](Cc2ccc(O)c(I)c2)C(=O)N[C@H](Cc2ccccc2)C(=O)N[C@H](CCCCNC(=O)CCCCCCC(=O)NCCCC[C@H](NC(=O)N[C@@H](CCC(=O)O)C(=O)O)C(=O)O)C(=O)O)cc1 (stereo partly drawn) [[^nat/177Lu]PSMA-3, DOTAGA-(4-NH2)F-(l-y)-f-k-KuE, metal not drawn] ({DOTAGA}-[Phe(4-NH2)][dTyr(3-I)][dF][dK](X1)-OH) ?
Result :: 8.55

Query :: Quick check: pIC50 of Nc1ccc(C[C@@H](NC(=O)CCC(C(=O)O)N2CCN(CC(=O)O)CCN(CC(=O)O)CCN(CC(=O)O)CC2)C(=O)N[C@H](Cc2ccc(O)cc2)C(=O)N[C@H](Cc2ccc3ccccc3c2)C(=O)N[C@H](CCCCNC(=O)CCC(=O)NCCC[C@@H](NC(=O)CC[C@H](NC(=O)N[C@@H](CCC(=O)O)C(=O)O)C(=O)O)C(=O)O)C(=O)O)cc1 (some centres unmarked) [[^nat/177Lu]PSMA-8, metal not drawn] ({DOTAGA}-[dPhe(4-NH2)][dY][d2Nal][dK]([Suc-X2])-OH) ?
Result :: 8.60

Query :: Can you look up the measured pIC50 of O=C(O)CC[C@H](NC(=O)N[C@@H](CCCCNC(=O)CCCCCCC(=O)NCCCC[C@@H](NC(=O)[C@@H](Cc1ccc2ccccc2c1)NC(=O)[C@@H](Cc1ccc(O)cc1)NC(=O)CCC(C(=O)O)N1CCN(CC(=O)O)CCN(CC(=O)O)CCN(CC(=O)O)CC1)C(=O)O)C(=O)O)C(=O)O (some centres unmarked) [[^nat/177Lu]PSMA-4, DOTAGA-y-nal-k-KuE, metal not drawn, reference compound] for me?
Result :: 8.68

Query :: What does the record list as pIC50 for O=C(O)CC[C@H](NC(=O)N[C@@H](CCC(=O)N[C@H](CCCNC(=O)CCC(=O)NCCCC[C@@H](NC(=O)[C@@H](Cc1ccc2ccccc2c1)NC(=O)[C@@H](Cc1ccc(O)cc1)NC(=O)CCC(C(=O)O)N1CCN(CC(=O)O)CCN(CC(=O)O)CCN(CC(=O)O)CC1)C(=O)O)C(=O)O)C(=O)O)C(=O)O (some centres unmarked) [[^nat/177Lu]PSMA-7, DOTAGA-y-nal-k(Suc-(HO-δ-orn-γ-EuE))-OH, metal not drawn, reference compound] ?
Result :: 8.51

Query :: Give its pIC50 value. Item: Nc1ccc(C[C@@H](NC(=O)CCC(C(=O)O)N2CCN(CC(=O)O)CCN(CC(=O)O)CCN(CC(=O)O)CC2)C(=O)N[C@H](Cc2ccc(O)c(I)c2)C(=O)N[C@H](Cc2ccccc2)C(=O)N[C@H](CCCCNC(=O)CCCCCCC(=O)NCCCC[C@H](NC(=O)N[C@@H](CCC(=O)O)C(=O)O)C(=O)O)C(=O)O)cc1 (stereo partly drawn) [[^nat/177Lu]PSMA-2, DOTAGA-(4-NH2)f-(l-y)-f-k-KuE, metal not drawn] ({DOTAGA}-[dPhe(4-NH2)][dTyr(3-I)][dF][dK](X1)-OH)
Result :: 8.64
